# Species: Rattus norvegicus
# method-notes: DrugMatrix - Regimen: Daily Repeat
# Type: toxicity, organism-based, Sprague-Dawley
# Parameters: regimen Daily Repeat, gender Male, age 6-8 weeks
# measurement-context: in vivo, po, 0 mg/kg, 72 h, tissue Plasma, route oral GAVAGE, dose level Control, time 3 day, vehicle 100 % WATER
measured-property: CHOLESTEROL (mg/dL)
Unit mg/dL implied. Number only.

Examples with their reported CHOLESTEROL follow.
[[record]]
molecule = "COC(=O)C1=C(C)NC(C)=C(C(=O)OCC(C)C)C1c1ccccc1[N+](=O)[O-] (stereo not given)"
measured_property = "CHOLESTEROL"
scale_unit = "mg/dL"
reported_measurement = 65.17

[[record]]
molecule = "CC(C)(C)c1ccc(C(=O)CCCN2CCC(OC(c3ccccc3)c3ccccc3)CC2)cc1"
measured_property = "CHOLESTEROL"
scale_unit = "mg/dL"
reported_measurement = 77.67

[[record]]
molecule = "COc1cc2ncnc(Nc3ccc(F)c(Cl)c3)c2cc1OCCCN1CCOCC1"
measured_property = "CHOLESTEROL"
scale_unit = "mg/dL"
reported_measurement = 79.83

[[record]]
molecule = "CC(C)C[C@H](NC(=O)[C@@H](O)[C@H](N)Cc1ccccc1)C(=O)O"
measured_property = "CHOLESTEROL"
scale_unit = "mg/dL"
reported_measurement = 76

[[record]]
molecule = "CC(C)NCC(O)COc1cccc2ccccc12 (stereo not given)"
measured_property = "CHOLESTEROL"
scale_unit = "mg/dL"
reported_measurement = 73.67

[[record]]
molecule = "C[C@@H]1C[C@@H]([C@H](O)CC2CC(=O)NC(=O)C2)C(=O)[C@@H](C)C1 [CYCLOHEXIMIDE]"
measured_property = "CHOLESTEROL"
scale_unit = "mg/dL"
reported_measurement = 76

[[record]]
molecule = "C[N+](C)(C)CCO.[Cl-] [CHOLINE CHLORIDE]"
measured_property = "CHOLESTEROL"
scale_unit = "mg/dL"
reported_measurement = 66

[[record]]
molecule = "ClC(Cl)Cl [CHLOROFORM]"
measured_property = "CHOLESTEROL"
scale_unit = "mg/dL"
reported_measurement = 63.67

[[record]]
molecule = "Cc1ncc([N+](=O)[O-])n1CCO"
measured_property = "CHOLESTEROL"
scale_unit = "mg/dL"
reported_measurement = 63.67


Switching to the query record.
Query Nc1ccn([C@@H]2CS[C@H](CO)O2)c(=O)n1 yields CHOLESTEROL of 79.67

###

# Organism: Rattus norvegicus
# method-notes: DrugMatrix - Regimen: Daily Repeat
# Assay type: toxicity, organism-based, Sprague-Dawley
# Set-up: regimen Daily Repeat, gender Male, age 6-8 weeks
# measurement-context: in vivo, po, 10 mg/kg, 120 h, tissue Blood, route oral GAVAGE, dose level Low, time 5 day, […]
measured-property: ABSOLUTE LYMPHOCYTE (CELLS/uL)
Dear colleague, please return just the value in CELLS/uL, with no unit written.

[[record]]
compound = "CC(C)CC(N(C)C)C1(c2ccc(Cl)cc2)CCC1 (centres undefined) [SIBUTRAMINE]"
measured_property = "ABSOLUTE LYMPHOCYTE"
scale_unit = "CELLS/uL"
reported_measurement = 12939.67


Input COc1ccc2cc([C@H](C)C(=O)O)ccc2c1 [NAPROXEN] . Output ABSOLUTE LYMPHOCYTE: 16605.33

Measured ABSOLUTE LYMPHOCYTE of CCOC(=O)C1=C(C)NC(C)=C(C(=O)OC)C1c1cccc([N+](=O)[O-])c1 (centres undefined) [NITRENDIPINE] : 10446

The recorded ABSOLUTE LYMPHOCYTE for COCCOC(=O)C1=C(C)NC(C)=C(C(=O)OC(C)C)C1c1cccc([N+](=O)[O-])c1 (centres undefined) [NIMODIPINE] is 13499.67

###

# Species: Rattus norvegicus
# method-notes: DrugMatrix - Regimen: Daily Repeat
# Type: toxicity, organism-based, Sprague-Dawley
# Set-up: regimen Daily Repeat, gender Male, age 6-8 weeks
# measurement-context: in vivo, po, 0 mg/kg, 120 h, tissue Plasma, route oral GAVAGE, dose level Control, time 5 day, […]
# URIC ACID >= 0.8 mg/dL gives Yes, anything below gives No

Record excerpt, results attached:
[[record]]
compound = "CCOC(=O)C1=C(C)NC(C)=C(C(=O)OC)C1c1cccc([N+](=O)[O-])c1 (configuration not stated)"
classification = "No"

[[record]]
compound = "COCCOC(=O)C1=C(C)NC(C)=C(C(=O)OC(C)C)C1c1cccc([N+](=O)[O-])c1 (configuration not stated)"
classification = "No"

[[record]]
compound = "CCCCCCCCc1ccc(O)cc1"
classification = "Yes"

[[record]]
compound = "C[C@H]1O[C@@H](O[C@H]2[C@@H](O)C[C@H](O[C@H]3[C@@H](O)C[C@H](O[C@H]4CC[C@@]5(C)[C@H](CC[C@@H]6[C@@H]5CC[C@]5(C)[C@@H](C7=CC(=O)OC7)CC[C@]65O)C4)O[C@@H]3C)O[C@@H]2C)C[C@H](O)[C@@H]1O"
classification = "Yes"

[[record]]
compound = "COc1ccc2[nH]c([S+]([O-])Cc3ncc(C)c(OC)c3C)nc2c1 (configuration not stated)"
classification = "Yes"


Is URIC ACID at least 0.8 mg/dL? Consider O=NN(CCCl)C(=O)NCCCl
No

In plain terms: is recorded URIC ACID at least 0.8 mg/dL for C[C@]12CC[C@@H]3c4ccc(O)cc4CC[C@H]3[C@@H]1CC[C@@H]2O ?
No

###

# Species: Rattus norvegicus
# method-notes: DrugMatrix - Regimen: Daily Repeat
# Format: toxicity, organism-based, Sprague-Dawley
# Design: regimen Daily Repeat, gender Male, age 6-8 weeks
# measurement-context: in vivo, po, 0 mg/kg, 120 h, tissue Plasma, route oral GAVAGE, dose level Control, time 5 day, […]
measured-property: ALKALINE PHOSPHATASE (u/L)
Output spec: scalar in u/L, unitless text.

// worked examples, ALKALINE PHOSPHATASE included
[[record]]
compound = "C[C@H]1O[C@@H](O[C@H]2[C@@H](O)C[C@H](O[C@H]3[C@@H](O)C[C@H](O[C@H]4CC[C@@]5(C)[C@H](CC[C@@H]6[C@@H]5CC[C@]5(C)[C@@H](C7=CC(=O)OC7)CC[C@]65O)C4)O[C@@H]3C)O[C@@H]2C)C[C@H](O)[C@@H]1O [DIGITOXIN]"
measured_property = "ALKALINE PHOSPHATASE"
scale_unit = "u/L"
reported_measurement = 492.67

[[record]]
compound = "CC(C)(Oc1ccc(C2CCCc3ccccc32)cc1)C(=O)O (stereo not drawn) [NAFENOPIN]"
measured_property = "ALKALINE PHOSPHATASE"
scale_unit = "u/L"
reported_measurement = 472.33


Notebook: O=NN(CCCl)C(=O)NCCCl [CARMUSTINE] , ALKALINE PHOSPHATASE read as 359.83

###

Catalogue of GLUCOSE values
# Species on record: Rattus norvegicus
# method-notes: DrugMatrix - Regimen: Daily Repeat
# Type: toxicity, organism-based, Sprague-Dawley
# Design: regimen Daily Repeat, gender Male, age 6-8 weeks
# measurement-context: in vivo, iv, 0 mg/kg, 72 h, tissue Plasma, dose level Control, time 3 day, vehicle 100 % SALINE
Express your answer in mg/dL, writing the number without its unit.

[[record]]
molecule = "CCc1c2c(nc3ccc(OC(=O)N4CCC(N5CCCCC5)CC4)cc13)-c1cc3c(c(=O)n1C2)COC(=O)[C@]3(O)CC"
measured_property = "GLUCOSE"
reported_measurement = 155.17

[[record]]
molecule = "COc1cccc2c1C(=O)c1c(O)c3c(c(O)c1C2=O)C[C@@](O)(C(=O)CO)C[C@@H]3O[C@H]1C[C@H](N)[C@@H](O)[C@H](C)O1 [EPIRUBICIN]"
measured_property = "GLUCOSE"
reported_measurement = 155.17

[[record]]
molecule = "CC[C@]1(O)C[C@@H]2CN(CCc3c([nH]c4ccccc34)[C@@](C(=O)OC)(c3cc4c(cc3OC)N(C)[C@H]3[C@@](O)(C(=O)OC)[C@H](OC(C)=O)[C@]5(CC)C=CCN6CC[C@]43[C@@H]65)C2)C1"
measured_property = "GLUCOSE"
reported_measurement = 157


In plain terms, CC(=O)N[C@@H]1[C@H](Oc2c3cc4cc2Oc2ccc(cc2Cl)[C@@H](O[C@@H]2O[C@@H](CO)[C@@H](O)[C@H](O)[C@@H]2NC(C)=O)[C@@H]2NC(=O)[C@H](NC(=O)[C@@H]4NC(=O)[C@H]4NC(=O)[C@@H](Cc5ccc(c(Cl)c5)O3)NC(=O)[C@H](N)c3ccc(O)c(c3)Oc3cc(O)cc4c3)c3ccc(O)c(c3)-c3c(O[C@H]4O[C@H](CO)[C@@H](O)[C@@H](O)[C@@H]4O)cc(O)cc3[C@@H](C(=O)O)NC2=O)O[C@@H](CO)[C@@H](O)[C@@H]1O has a documented GLUCOSE of 178.33

GLUCOSE for CCC1=C[C@@H]2CN(C1)Cc1c([nH]c3ccccc13)[C@@](C(=O)OC)(c1cc3c(cc1OC)N(C)[C@H]1[C@@](O)(C(=O)OC)[C@H](OC(C)=O)[C@]4(CC)C=CCN5CC[C@]31[C@@H]54)C2 is 163.83

The molecule listed as COc1cccc2c1C(=O)c1c(O)c3c(c(O)c1C2=O)C[C@@](O)(C(=O)CO)C[C@@H]3O[C@H]1C[C@H](N)[C@H](O)[C@H](C)O1 shows GLUCOSE equal to 151

Sourced from ChEMBL document CHEMBL3885881
